Origin of values: patent US8299067B2

Give measured pIC50 for each item. Keep answers brief.
- TESTED SYSTEM: Recombinant human MetAP-2 (Homo sapiens, UniProt P50579)
- Sequence (P50579 whole entry): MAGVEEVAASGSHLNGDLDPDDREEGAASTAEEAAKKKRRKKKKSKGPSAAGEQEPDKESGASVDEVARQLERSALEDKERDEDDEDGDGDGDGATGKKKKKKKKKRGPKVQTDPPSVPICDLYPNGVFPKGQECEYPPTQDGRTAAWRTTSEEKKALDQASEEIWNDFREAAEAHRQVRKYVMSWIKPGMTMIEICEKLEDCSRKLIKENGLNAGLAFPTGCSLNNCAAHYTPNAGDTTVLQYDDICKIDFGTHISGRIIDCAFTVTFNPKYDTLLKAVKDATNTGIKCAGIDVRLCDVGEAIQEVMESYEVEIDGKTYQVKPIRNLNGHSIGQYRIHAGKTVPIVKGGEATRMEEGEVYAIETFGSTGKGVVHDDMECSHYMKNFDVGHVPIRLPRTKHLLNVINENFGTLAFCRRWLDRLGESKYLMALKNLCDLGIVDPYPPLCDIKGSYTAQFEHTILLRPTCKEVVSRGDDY
- PROCEDURE SUMMARY: MetAP-2 enzymatic assay
- RECORDED CONDITIONS: 1 nM purified human MetAP-2, inhibitor incubated at 37° C. for 30 minutes, 1 mM Met-Gly-Met-Met, released methionine
Give bare numbers, as −log10 of the molar value.

Below: 5 compounds and their reported pIC50.
CC(C)=CC[C@H]1O[C@]1(C)[C@H]1C[C@H](OC(=O)N[C@@H](Cc2ccccc2)C(=O)NC2CC2)CC[C@]12CO2 [Compound 17j]
7.39
CC(C)=CC[C@H]1O[C@]1(C)[C@H]1C[C@H](OC(=O)N[C@H](C(=O)NC2CCCC2)C(C)C)CC[C@]12CO2 [Compound 17o]
7.55
COC(=O)[C@@H](NC(=O)O[C@@H]1CC[C@]2(CO2)[C@@H]([C@@]2(C)O[C@@H]2CC=C(C)C)C1)C(C)C [Compound 17p]
7.57
CC(C)=CC[C@H]1O[C@]1(C)[C@H]1C[C@H](OC(=O)N[C@@H](Cc2ccccc2)C(=O)N2CCOCC2)CC[C@]12CO2 [Compound 17h]
7.36
CC(C)=CCC1OC1(C)C1CC(O)CCC12CO2 (stereo not drawn)
6.01

Next compound, please.
## Task Look up pIC50: CC(C)=CC[C@H]1O[C@]1(C)[C@H]1C[C@H](OC(=O)N[C@@H](Cc2ccccc2)C(=O)NCCCN=[N+]=[N-])CC[C@]12CO2 [Compound 17g]
## Result 7.39
